These data points were gathered from patent US20230109839A1.

# Tested target: human Nav1.1 (Homo sapiens, UniProt P35498)
# Construct: host or cells: HEK293
# Experiment notes: Amplification of Nav1.1-derived voltage-gated sodium current (Nav1.1 current), automated patch clamp (Test 1)
# Type: cell-based
# Assay context: HEK293, concentration for evaluation 1 μM; HEK293 stably expressing human Nav1.1; read-out: Nav1.1 current amplification rate (%)
Quantity kind: activation at 1 µM (%)
Express it in %; write the number only.

Query block: Supply reported activation at 1 µM belonging to this compound: `N#Cc1ccc(NC(=O)Cn2ncc3ccc(N4CCC5(CC5)C(F)(F)C4)nc32)cn1`
Result block: 68

Query block: Supply reported activation at 1 µM belonging to this compound: CC1CC=C(c2ncc3cnn(CC(=O)NC4=CC5N=COC5C=C4)c3n2)CC1 (stereo not drawn)
Result block: 283

Query block: Supply reported activation at 1 µM belonging to this compound: CC1CC=C(c2cnc3cnn(CC(=O)Nc4ccn5ncnc5c4)c3n2)CC1 (stereo not drawn)
Result block: 244

Query block: Supply reported activation at 1 µM belonging to this compound: `CN(c1ccc2cnn(CC(=O)Nc3cnc4cccnc4c3)c2n1)C1CCCC1`
Result block: 81

Query block: Supply reported activation at 1 µM belonging to this compound: CC1CC=C(c2ccc3cnn(CC(=O)Nc4ccc5ocnc5c4)c3n2)CC1 (stereo not drawn)
Result block: 164

Query block: Supply reported activation at 1 µM belonging to this compound: Cc1cc(NC(=O)Cn2ncc3cnc(N(C)C4CCCC4(F)F)nc32)cc2ncnn12 (stereo not drawn)
Result block: 143

Query block: Supply reported activation at 1 µM belonging to this compound: `CN(CC1CCC1)c1ccc2cnn(CC(=O)Nc3cnc4cccnc4c3)c2n1`
Result block: 151

Query block: Supply reported activation at 1 µM belonging to this compound: `O=C(Cn1ncc2ccc(-c3ccc(F)cc3F)nc21)Nc1ccc2ocnc2c1`
Result block: 34

Query block: Supply reported activation at 1 µM belonging to this compound: `CN(c1ccc2cnn(CC(=O)Nc3ccc4ncncc4c3)c2n1)C1CCCC1`
Result block: 39

Query block: Supply reported activation at 1 µM belonging to this compound: `Cc1cc(NC(=O)Cn2ncc3cnc(N(C)C4CC4)nc32)cc2ncnn12`
Result block: 19

Query block: Supply reported activation at 1 µM belonging to this compound: `CN(CC1(C)CC1)c1ncc2cnn(CC(=O)Nc3cnc4cccnc4c3)c2n1`
Result block: 89

Query block: Supply reported activation at 1 µM belonging to this compound: CC1CC=C(c2ncc3cnn(CC(=O)Nc4ccn5ccnc5c4)c3n2)CC1 (stereo not drawn)
Result block: 204

Query block: Supply reported activation at 1 µM belonging to this compound: CC1CCN(c2ncc3cnn(CC(=O)Nc4ccc(C#N)nc4)c3n2)CC1(F)F (stereo not drawn)
Result block: 171

Query block: Supply reported activation at 1 µM belonging to this compound: `CN(c1ncc2cnn(CC(=O)Nc3ccc(C#N)nc3)c2n1)C1CC2(CC2)C1`
Result block: 76

Query block: Supply reported activation at 1 µM belonging to this compound: `CN(c1ncc2cnn(CC(=O)Nc3cnc4cccnc4c3)c2n1)C1CC2(CC2)C1`
Result block: 87

Query block: Supply reported activation at 1 µM belonging to this compound: `CN(CC1CCC1)c1ncc2cnn(CC(=O)Nc3ccc4ncnn4c3)c2n1`
Result block: 88

Query block: Supply reported activation at 1 µM belonging to this compound: `Cc1cc(NC(=O)Cn2ncc3cnc(N(C)C4CCCC4)nc32)cc2ncnn12`
Result block: 103

Query block: Supply reported activation at 1 µM belonging to this compound: `CN(c1ncc2cnn(CC(=O)Nc3cnc4cccnc4c3)c2n1)C1CC1`
Result block: 28
